System: HCC-2998 colon
Experiment: NCI-60 one-dose screen, 48 h (100 = growth as untreated, 0 = no growth, -100 = all killed)
Conditions: 10 µM unless noted
Compounds without any hit were thinned out: in the full panel of roughly 83,000, 20% have a hit.
MEASURED_PROPERTY: growth (%)
Enter your answer as a number in %; do not include the unit.

Solved cases (3 shown):
Exercise: What growth appears in the records for this compound with HCC-2998 colon? `Cn1c(COC(=O)NCCn2ccnc2)nc2c(N3CCOCC3)nc(-c3ccccc3)nc21`
Solution: -82.1

Exercise: Try the compound `CN(C)CCCn1c2c(c3ccc(-c4ccn[nH]4)cc3c1=O)C(=O)c1ccccc1-2`
Solution: 53.8

Exercise: Try the compound Clc1ccc(C2CC(c3cccc(Nc4ccncc4)c3)=NN2c2cc(Cl)cc(Cl)c2)cc1 (stereo not drawn)
Solution: 19.6

***
Exercise: What growth appears in the records for this compound with HCC-2998 colon? `COc1ccc(-c2ncc(-c3ccccc3)[nH]2)cc1OC`
Solution: 120

Exercise: Try the compound `COc1nccnn1`
Solution: 110

Exercise: Try the compound `C=C(C)[C@@H]1CC[C@]2(C(=O)NCC(=O)OC)CC[C@]3(C)[C@H](CC[C@@H]4[C@@]5(C)Cc6c([nH]c7ccccc67)C(C)(C)[C@@H]5CC[C@]43C)[C@@H]12`
Solution: 103

Exercise: Try the compound `COc1cccc(/C=C2\COc3ccc(-c4ccccc4)cc3C2=O)c1`
Solution: 19.4

Exercise: Try the compound `Cn1c2c(Cl)c(Cl)ccc2c2cc(N)[nH]c(=O)c21`
Solution: 85

Exercise: Try the compound `C[C@H]1[C@H](C)CC[C@]2(CO)CC[C@]3(C)C(=CC[C@@H]4[C@@]5(C)Cc6c([nH]c7ccccc67)C(C)(C)[C@@H]5CC[C@]43C)[C@H]12`
Solution: 86

Exercise: Try the compound `CCCCCCCCOc1ccc(/C=N/Nc2cc(C)nc3ccc(Cl)cc23)cc1`
Solution: -58.6

Exercise: Try the compound `CN1CCN(c2c(F)cc(NC3=C(Cl)C(=O)c4ncccc4C3=O)cc2F)CC1`
Solution: 108
